Source: paper PMC5686127

- Test Target: CHD4 PHD1-linker (aa 361–443) (human, UniProt Q14839 361-443)
- Sequence (Q14839 361-443): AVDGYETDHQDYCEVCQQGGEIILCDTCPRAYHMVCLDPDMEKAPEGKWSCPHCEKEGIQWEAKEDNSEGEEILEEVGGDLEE
- Protocol: 150 mM NaCl
Endpoint Label: Kd (nM)

Binder	Observed Result
ARTKQTARKSTG [histone H3 peptide (aa 1–12)]	500
